- PROTOCOL_TEXT: Human blood plasma stability assay
- Assay type: in vitro ADME
- RUN_CONDITIONS: human, human blood plasma; 0.25 mM, 37° C., in vitro; read-out: half-life (T1/2) in human blood plasma
ASSAY_METRIC: half-life at 0.25 mM

>  <MOLECULE>
CC[C@H](C)[C@H](N)C(=O)N[C@@H](CCC(=O)O)C(=O)N[C@H](C(=O)N[C@@H](CC(=O)O)C(=O)N[C@H](C(=O)O)C(C)C)[C@@H](C)O [IETDV, reference compound]

>  <REPORTED_RESULT>
37 min

$$$$

###

- SYSTEM_NAME: PDZ1-2 of PSD-95 (Homo sapiens, UniProt P78352)
- Construct: made in house; host or cells: E. coli BL21-DE3 pLysS
- PROTOCOL_TEXT: Fluorescence polarization (FP) assay, affinity for PDZ1-2 of PSD-95
- Assay type: binding
- RUN_CONDITIONS: Ki ± SEM, affinity towards PDZ1-2 of PSD-95, heterologous competition, probe AB143 0.5 nM, PDZ1-2 […], TBS pH 7.4; IC50 converted to Ki
pKi: −log10 of the molar value. Where no end group is shown, it is not given here.

>  <SEQUENCE_ENTRY>
YGRKKRRQRRRKLSSIESDV [Tat-NR2B9c, reference compound]

>  <pKi>
5.34

$$$$
